Answer each item with its documented IC50 at 5 days.
Experiment: Cytotoxicity against mouse NIH3T3 cells incubated for 5 days by MTT assay
Format: toxicity, cell-based
# unit: µM | format: bare number

Lab book: IC50 at 5 days of "CN1CCN(c2cc(-c3cnn(C)c3)c3nc(-c4ccc(F)cc4)cn3n2)CC1" noted as 9

The compound listed as "CN1CCN(c2cc(-c3cccc4[nH]ccc34)c3nc(-c4ccc(F)cc4)cn3n2)CC1" shows IC50 at 5 days equal to 12.9

"CN1CCN(c2cc(-c3ccc4[nH]ccc4c3)c3nc(-c4ccc(F)cc4)cn3n2)CC1" has a reported IC50 at 5 days of 9

Sample "CN1CCN(c2cc(-c3ccsc3)c3nc(-c4ccccc4F)cn3n2)CC1" ; IC50 at 5 days observed: 14.6

// recorded IC50 at 5 days for "CN1CCN(c2cc(-c3ccsc3)c3nc(-c4ccccc4)cn3n2)CC1" : 10.2

// recorded IC50 at 5 days for "CN1CCN(c2cc(-c3ccsc3)c3nc(-c4cccc(F)c4)cn3n2)CC1" : 11.9

So, "CN1CCN(c2cc(-c3cccc4[nH]ccc34)c3nc(-c4cccc(F)c4)cn3n2)CC1" ? Its IC50 at 5 days was 10.1

Per the records, this compound ( "CN1CCN(c2cc(-c3cnc(N4CCN(C)CC4)nc3)c3nc(-c4ccccc4F)cn3n2)CC1" ) has IC50 at 5 days equal to 9.6

Input "OCCN1CCN(c2cc(-c3ccsc3)c3nc(-c4ccccc4)cn3n2)CC1" . Output IC50 at 5 days: 13.1

Just so you know, measured IC50 at 5 days for CCC(C)n1ncn(-c2ccc(N3CCN(c4ccc(OCC5COC(Cn6cncn6)(c6ccc(Cl)cc6Cl)O5)cc4)CC3)cc2)c1=O (configuration not stated) came out at 13.7

// recorded IC50 at 5 days for "OCCN1CCN(c2cc(-c3cnc(N4CCN(CCO)CC4)nc3)c3nc(-c4ccccc4F)cn3n2)CC1" : 1.4

For this compound ( "CN1CCN(c2cc(-c3cccc4[nH]ccc34)c3nc(-c4ccccc4)cn3n2)CC1" ), measured IC50 at 5 days is 9.9

Just so you know, measured IC50 at 5 days for "OCCN1CCN(c2cc(-c3ccsc3)c3nc(-c4ccccc4F)cn3n2)CC1" came out at 10.5

Per the records, this compound ( "CN1CCN(c2cc(-c3cnc(N4CCN(C)CC4)nc3)c3nc(-c4cccc(F)c4)cn3n2)CC1" ) has IC50 at 5 days equal to 10.5

Lab note: "OCCN1CCN(c2cc(-c3ccsc3)c3nc(-c4cccc(F)c4)cn3n2)CC1" gave IC50 at 5 days of 10.7

// field: IC50 at 5 days; key: "CN1CCN(c2cc(-c3cnc(N4CCN(C)CC4)nc3)c3nc(-c4ccc(F)cc4)cn3n2)CC1" ; value = 12.3

What the record says about "CN1CCN(c2cc(-c3cnc(N4CCN(C)CC4)nc3)c3nc(-c4ccccc4)cn3n2)CC1" : IC50 at 5 days is 14.3

----------
Please provide measured pIC50 for the entries that follow.
Tested on: Madurella mycetomatis
Experiment: Antifungal activity against Madurella mycetomatis MM55 by XTT assay
Format: functional, organism-based
Details: Madurella mycetomatis, MM55
Scale: pIC50 equals -log10([C]), with [C] in mol/L.

Memo: "CN1CCN(c2cc(-c3ccsc3)c3nc(-c4ccccc4F)cn3n2)CC1" , reported pIC50: 5.72

pIC50 reported for this molecule "CN1CCN(c2cc(-c3cccc4[nH]ccc34)c3nc(-c4cccc(F)c4)cn3n2)CC1" : 5.74

The recorded pIC50 for entry "CN1CCN(c2cc(-c3cccnc3)c3nc(-c4ccccc4F)cn3n2)CC1" equals 4.94

Query "CN1CCN(c2cc(-c3cccc4[nH]ccc34)c3nc(-c4ccccc4F)cn3n2)CC1" yields pIC50 of 5.04

Looking up "CN1CCN(c2cc(-c3cccnc3)c3nc(-c4cccc(F)c4)cn3n2)CC1" , I found its pIC50 recorded as 4.93

Value of pIC50 reported for the molecule "OCCN1CCN(c2cc(-c3ccsc3)c3nc(-c4ccccc4)cn3n2)CC1" is 5.59

pIC50 in this record for "CN1CCN(c2cc(-c3cccc4[nH]ccc34)c3nc(-c4ccccc4)cn3n2)CC1" : 5.08

Measured pIC50 of "OCCN1CCN(c2cc(-c3cnc(N4CCN(CCO)CC4)nc3)c3nc(-c4ccccc4F)cn3n2)CC1" : 5.42

get_value(item= "CC(C)CCn1cc(-c2cc(N3CCN(C)CC3)nn3cc(-c4ccc(F)cc4)nc23)cn1" , readout=pIC50) returns 4.99

# molecule CCC(C)n1ncn(-c2ccc(N3CCN(c4ccc(OCC5COC(Cn6cncn6)(c6ccc(Cl)cc6Cl)O5)cc4)CC3)cc2)c1=O (centres undefined) ; its pIC50 = 5.96

So for "CN1CCN(c2cc(-c3cnc(N4CCN(C)CC4)nc3)c3nc(-c4cccc(F)c4)cn3n2)CC1" , the logged pIC50 turned out to be 5.33

The molecule listed as "CN1CCN(c2cc(-c3ccsc3)c3nc(-c4cccc(F)c4)cn3n2)CC1" shows pIC50 equal to 5.68

Per the records, this molecule ( "CN1CCN(c2cc(-c3cccs3)c3nc(-c4ccc(F)cc4)cn3n2)CC1" ) has pIC50 equal to 5.07

Entry under test: "CN1CCN(c2cc(-c3ccc(N)nc3)c3nc(-c4ccccc4F)cn3n2)CC1" . Its pIC50 was 5.01

Quick note, pIC50 for "CN1CCN(c2cc(-c3cnc(N4CCN(C)CC4)nc3)c3nc(-c4ccccc4)cn3n2)CC1" landed at 5.70

The reported pIC50 of the molecule "CN1CCN(c2cc(-c3ccc4[nH]ccc4c3)c3nc(-c4ccc(F)cc4)cn3n2)CC1" was 5.47

----------
Would you mind telling me the reported MIC of each entry?
System: Madurella mycetomatis
Test: Antifungal activity against Madurella mycetomatis I11 by XTT assay
Format: functional

Entry "OCCN1CCN(c2cc(-c3cnc(N4CCN(CCO)CC4)nc3)c3nc(-c4ccccc4F)cn3n2)CC1" ; MIC = > 16 µM

Value of MIC reported for the molecule "CN1CCN(c2cc(-c3cnn(C)c3)c3nc(-c4ccc(F)cc4)cn3n2)CC1" is > 16 µM

Entry "CN1CCN(c2cc(-c3cccc4[nH]ccc34)c3nc(-c4ccccc4)cn3n2)CC1" — recorded MIC = > 16 µM

----------
Would you mind telling me the reported MIC of each entry?
Tested on: Madurella mycetomatis
Assay: Antifungal activity against Madurella mycetomatis CBS247.48 by XTT assay
Format: functional
API: value field is a number in µM; no unit string.

MIC reading for "CN1CCN(c2cc(-c3cccc4[nH]ccc34)c3nc(-c4ccc(F)cc4)cn3n2)CC1" : 8

# MIC (compound: "CN1CCN(c2cc(-c3ccsc3)c3nc(-c4ccccc4F)cn3n2)CC1" ) is 8

----------
Tested on: Madurella mycetomatis
Test: Antifungal activity against Madurella mycetomatis MM55 by XTT assay
Assay type: functional, organism-based
Conditions: Madurella mycetomatis, MM55
endpoint: IC50

Sure, the documented IC50 for "CN1CCN(c2cc(-c3cccnc3)c3nc(-c4ccc(F)cc4)cn3n2)CC1" is > 16 µM

The molecule listed as "COc1ccccc1-c1cn2nc(N3CCN(C)CC3)cc(-c3cccc4[nH]ccc34)c2n1" has a reported IC50 of > 16 µM

IC50 recorded for this molecule, "OCCN1CCN(c2cc(-c3cccc4[nH]ccc34)c3nc(-c4ccc(F)cc4)cn3n2)CC1" , is > 16 µM
